Recorded values, source paper PMC9352680.

systemTested: T1, PUF4 RNA-binding domain (Saccharomyces cerevisiae, UniProt P25339 537-888)
T1 sequence: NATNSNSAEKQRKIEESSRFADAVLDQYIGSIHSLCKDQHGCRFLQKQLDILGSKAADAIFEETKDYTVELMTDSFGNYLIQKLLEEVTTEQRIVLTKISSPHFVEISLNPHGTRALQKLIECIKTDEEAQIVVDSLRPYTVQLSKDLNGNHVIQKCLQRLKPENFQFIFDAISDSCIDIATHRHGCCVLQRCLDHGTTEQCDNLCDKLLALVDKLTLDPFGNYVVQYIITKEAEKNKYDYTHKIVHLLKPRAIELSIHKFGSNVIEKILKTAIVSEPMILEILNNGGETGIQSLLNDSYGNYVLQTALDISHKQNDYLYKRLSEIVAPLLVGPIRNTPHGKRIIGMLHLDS
testDescription: Mg; RNA-MaP; 20 mM Na-HEPES pH 7.4, 30 mM KOAc, 0.75 mM MgCl2, 0.1% Tween-20, 5% glycerol, 0.1 mg/mL BSA, 2 mM DTT; 25 C; 0.0125-409.6 nM protein
conditionNotes: tags: N-His6-TEV cleaved; C-SNAP kept, Cy3B-labelled; label: tethered on chip by stalled RNA polymerase
reportedMetric: Kd (nM)
Output spec: scalar in nM, unitless text.

// worked examples, Kd included
INSERT INTO measurements (binder, quantitativeresult) VALUES
  ('UCUCUUUGUACGCUUCUCUU (ssRNA) [Ic_S1_P3E.1_K3.1_C3.1_H3.1_A3.1_[T5C]_[A6G]_F3.1_[T7C]_[A8T]_T3.1]', 62.7),
  ('UCUCUUUGUAUGACUAUCUCUU (ssRNA) [Ib_S1_P5E.1_K5.1_C5.1_H5.1_A5.1_[T6G]_F5.1_[T8C]_T5.1]', 31.2),
  ('Ic_S2_P5E.1_K5.1_C5.1_H5.1_A5.1_[T5C]_[T6C]_F5.1_[A10T]_T5.1 (ssRNA) RNA: UUUGAUUAAUAUGAUAUCGUUCUUUCUUGUACCAUUUUUCUUUCUCGAUAUCAUAUUAAUCUUU', 2.17),
  ('UCUCUUUGUAGCAGUCUCUU (ssRNA) [Ic_S1_P3E.1_K3.1_C3.1_H3.1_A3.1_[T5G]_[A6C]_F3.1_[T7A]_[A8G]_T3.1]', 1740),
  ('Ic_S2_P5E.1_K5.1_C5.1_H5.1_A5.1_[T6A]_[A7G]_F5.1_[T9C]_[A10C]_T5.1 (ssRNA) RNA: UUUGAUUAAUAUGAUAUCGUUCUUUCUUGUAUAGUCCUUCUUUCUCGAUAUCAUAUUAAUCUUU', 17.8),
  ('Id_ii_S4_P3E.2_K3.1_C3.2_[C-2T]_[T-1A]_H3.1_A3.1_F3.1_T3.2_[T9C]_[A10C] (ssRNA) RNA: UUUGACAACUGAUCGUUCUUUCUUAUGUAUAUACCUUCUUUCUCGAUCAGUUGUCUUU', 6),
  ('UCUCUUUGUAACGAUGUCUCUU (ssRNA) [Ic_S1_P5E.1_K5.1_C5.1_H5.1_A5.1_[T5A]_[T6C]_[A7G]_F5.1_[T8A]_[A10G]_T5.1]', 1000),
  ('Id_iii_S4_P5E.7_K5.3_C5.3_[C-2A]_H5.3_A5.1_F5.1_T5.2 (ssRNA) RNA: UUUGACAACUGAUCGUUCUUUCUUAUACACUUAUUAUAUUCUUUCUCGAUCAGUUGUCUUU', 1020),
  ('Id_ii_S2_P3E.3_K3.2_C3.2_[C-2T]_[T-1C]_H3.2_A3.1_F3.1_T3.2_[T9C]_[A10C] (ssRNA) RNA: UUUGAUUAAUAUGAUAUCGUUCUUUCUUCUAUAUAUACCUUCUUUCUCGAUAUCAUAUUAAUCUUU', 228),
  ('Id_ii_S2_P5E.3_K5.2_C5.2_H5.2_A5.1_F5.1_T5.2_[A12T] (ssRNA) RNA: UUUGAUUAAUAUGAUAUCGUUCUUUCUCUUAUAUUAUUAUUUUCUUUCUCGAUAUCAUAUUAAUCUUU', 110);

Input line: Please give the measured Kd for this binder: UCUCUUUGUAUCCCUCUCUU (ssRNA) [Ic_S1_P3E.1_K3.1_C3.1_H3.1_A3.1_[A6C]_F3.1_[T7C]_[A8C]_T3.1]
Output line: 531
